# ASSAY TARGET: ALK1 kinase (Homo sapiens (Human))
# Sequence (P37023 22-503): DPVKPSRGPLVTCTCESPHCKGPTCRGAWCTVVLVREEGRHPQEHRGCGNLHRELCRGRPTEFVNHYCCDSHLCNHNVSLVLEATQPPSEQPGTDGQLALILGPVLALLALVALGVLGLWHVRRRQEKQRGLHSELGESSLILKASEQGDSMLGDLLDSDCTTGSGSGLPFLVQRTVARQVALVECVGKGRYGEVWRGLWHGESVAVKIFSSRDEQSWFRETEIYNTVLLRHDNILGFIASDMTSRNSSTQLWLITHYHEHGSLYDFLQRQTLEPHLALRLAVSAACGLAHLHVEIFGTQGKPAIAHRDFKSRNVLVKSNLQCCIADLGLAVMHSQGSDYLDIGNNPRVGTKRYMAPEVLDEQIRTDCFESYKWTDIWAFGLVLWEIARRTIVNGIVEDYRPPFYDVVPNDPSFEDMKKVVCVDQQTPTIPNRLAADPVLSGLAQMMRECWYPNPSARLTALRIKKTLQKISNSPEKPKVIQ
# TEST: ALK1 kinase assay (ProQinase protocol)
# Type: biochemical
# CONDITION INFO: ProQinase radiometric assay, casein, γ-33P-ATP

# COMPOUND, IC50
measured = [
    ("CCc1cc(-c2cc(C(O)C3CC3)n3ncnc(N)c23)cc(F)c1CO (racemic)", "5.7 nM"),
    ("Nc1ncnn2c1c(-c1cc(F)c(CO)c(F)c1)cc2[C@H]1CC[C@H](O)CC1", "6.7 nM"),
    ("CCc1cc(-c2cc(C3CCNC3)n3ncnc(N)c23)cc(F)c1CO (racemic)", "< 3 nM"),
    ("CCc1cc(-c2cc(C3CCCNC3)n3ncnc(N)c23)cc(F)c1CO (racemic)", "4 nM"),
    ("CCc1cc(-c2cc([C@H]3CC[C@H](O)CC3)n3ncnc(N)c23)cc(F)c1CO", "124 nM"),
    ("Nc1ncnn2c([C@@H]3CCCNC3)cc(-c3cc(F)c(CO)c(F)c3)c12", "3 nM"),
]

---

Each item that follows carries a reported IC50.
# ASSAY TARGET: ALK1 kinase (Homo sapiens (Human))
# TEST: In vitro enzyme inhibition using scintillation of incorporated radio label (flashplate assay)
# Assay type: biochemical
# CONDITION INFO: biotinylated α-casein, 33P-ATP, 500 nM ATP

# MOLECULE, IC50 / nM
data = [
    ("Nc1ncnn2c(CN3CCOCC3)cc(-c3ccc(CO)cc3)c12", 19),
    ("Nc1ncnn2c(CN3CCC(O)CC3)cc(-c3cc(F)c(CO)c(F)c3)c12", 65),
    ("Cc1cc(-c2cc(CN3CCOCC3)n3ncnc(N)c23)ccc1CO", 30),
    ("CCCc1cc(-c2cc(F)c(CO)c(F)c2)c2c(N)ncnn12", 2.8),
    ("CC(O)c1cc(-c2cc(F)c(CO)c(F)c2)c2c(N)ncnn12 (racemic)", 3.8),
    ("Nc1ncnn2c(CN3CCOCC3)cc(-c3cc(F)c(CO)c(F)c3)c12", 30),
    ("Nc1ncnn2c(CCCO)cc(-c3ccc(CO)cc3)c12", 4),
]

---

Each item that follows carries a reported IC50.
# ASSAY TARGET: ALK1 kinase (Homo sapiens (Human))
# TEST: In vitro enzyme inhibition using scintillation of incorporated radio label (flashplate assay)
# Assay type: biochemical
# CONDITION INFO: biotinylated α-casein, 33P-ATP, 500 nM ATP
Structures can show the parent of a compound that is named as a salt.

# COMPOUND, IC50, nM
measured = [
    ("Nc1ncnn2c(C3(O)CCCCC3)cc(-c3cc(F)c(CO)c(F)c3)c12 [Example 33, trifluoroacetate]", 15),
    ("Nc1ncnn2c(CN3CCOCC3)cc(-c3ccc(CO)c(F)c3)c12", 25),
    ("Cc1cc(-c2cc(C3CCCNC3)n3ncnc(N)c23)cc(F)c1CO (stereo not drawn)", 4),
    ("COc1cc(-c2cc(C3CCCNC3)n3ncnc(N)c23)cc(F)c1CO (stereo not drawn)", 2),
    ("Nc1ncnn2c1c(-c1cc(F)c(CO)c(F)c1)cc2[C@H]1CC[C@H](O)CC1", 2),
    ("Nc1ncnn2c(C(O)C3CCOCC3)cc(-c3cc(F)c(CO)c(F)c3)c12 (stereo not drawn)", 40),
    ("Cc1nc(-c2cc(-c3ccc(CO)cc3)c3c(N)ncnn23)cs1", 4),
    ("Nc1ncnn2c([C@@H]3CCCNC3)cc(-c3cc(F)c(CO)c(F)c3)c12", 1.9),
    ("COc1cc(-c2cc([C@H]3CC[C@H](O)CC3)n3ncnc(N)c23)cc(F)c1CO", 1),
]

// provenance: patent US9040691B2
